target: Potassium voltage-gated channel subfamily KQT member 2 (Rattus norvegicus) (UniProt O88943); experiment: Activity at rat KCNQ2 expressed in CHOK1 cells assessed as ratio of amplitude of outward current in presence of test compound to amplitude of outward current in absence of test compound at 10 uM at -10 mV by whole cell patch clamp assay; assay type: cell-based
Sequence (O88943 whole entry): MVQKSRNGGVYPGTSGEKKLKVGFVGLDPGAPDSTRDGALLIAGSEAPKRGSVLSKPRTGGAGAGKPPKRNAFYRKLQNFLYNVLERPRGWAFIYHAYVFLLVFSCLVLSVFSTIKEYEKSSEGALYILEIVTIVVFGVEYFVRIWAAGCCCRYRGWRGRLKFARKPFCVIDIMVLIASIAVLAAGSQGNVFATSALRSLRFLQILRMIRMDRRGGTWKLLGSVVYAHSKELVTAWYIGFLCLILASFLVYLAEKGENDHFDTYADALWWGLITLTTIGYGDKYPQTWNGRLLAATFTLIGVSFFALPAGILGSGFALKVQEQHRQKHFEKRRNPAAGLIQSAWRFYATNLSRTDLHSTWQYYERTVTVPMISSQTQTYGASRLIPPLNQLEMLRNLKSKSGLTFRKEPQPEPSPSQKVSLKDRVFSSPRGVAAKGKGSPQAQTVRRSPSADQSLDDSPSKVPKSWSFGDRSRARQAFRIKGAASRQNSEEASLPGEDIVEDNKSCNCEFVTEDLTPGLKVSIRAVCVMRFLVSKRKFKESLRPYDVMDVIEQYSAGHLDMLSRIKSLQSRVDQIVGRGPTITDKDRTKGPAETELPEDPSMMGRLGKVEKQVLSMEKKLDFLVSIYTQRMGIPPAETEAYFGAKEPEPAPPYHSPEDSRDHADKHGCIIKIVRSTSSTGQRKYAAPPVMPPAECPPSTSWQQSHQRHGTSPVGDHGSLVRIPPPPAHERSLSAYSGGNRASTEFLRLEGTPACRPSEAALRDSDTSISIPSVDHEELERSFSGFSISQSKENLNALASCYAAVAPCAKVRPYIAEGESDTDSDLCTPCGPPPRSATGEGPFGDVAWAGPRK
ASSAY READOUT: Ratio

Query :: Ratio lookup needed for C/C=C(\C)CN(Cc1ccc(F)cc1)c1ccc(NC(=O)OCC)c(NC(=O)OCC)c1 , thanks.
Result :: 0.85

Query :: Need Ratio of C#CCN(Cc1ccc(F)cc1)c1ccc(NC(=O)OCC)c(NC(=O)OC)c1 , thanks.
Result :: 0.61

Query :: Recorded Ratio of C#CCN(Cc1ccc(F)cc1)c1ccc(NC(=O)OC(C)C)c(NC(=O)OC(C)C)c1 , please.
Result :: 0.35

Query :: Any idea what its Ratio is? The compound is C#CCN(Cc1ccc(F)cc1)c1ccc(NC(=O)OCC(C)C)c(NC(=O)OCC(C)C)c1
Result :: 0.83

Query :: What does the record list as Ratio for C#CCN(Cc1ccc(F)cc1)c1ccc(NC(=O)OCC)c(NC(=O)OCC=C)c1 ?
Result :: 0.96
